# credit: patent US20250188176A1

# target: T1, Extracellular domain (ECD) of the canine IL-4 receptor alpha-AviTag-His Tag (canine)
# T1 construct: expressed in CHO cells; also called canine IL-4RA; canine IL4Ra
# T1 chain: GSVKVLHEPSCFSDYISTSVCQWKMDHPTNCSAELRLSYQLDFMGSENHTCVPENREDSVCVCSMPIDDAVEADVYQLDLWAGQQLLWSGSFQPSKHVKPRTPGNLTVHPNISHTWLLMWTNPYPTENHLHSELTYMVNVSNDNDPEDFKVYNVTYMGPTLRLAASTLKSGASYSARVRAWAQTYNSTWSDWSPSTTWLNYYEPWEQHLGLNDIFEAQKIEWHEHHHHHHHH
# experiment description: SPR, IgG captured via anti-dog Fc;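 further: biacore T200 SPR with antibodies captured on CM5 chip bearing anti-dog Fc, 120 s association then 600 s dissociation, double-referenced sensorgrams fitted with 1:1 binding model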
Reported kon values for a set of binders

# binder, kon / M⁻¹ s⁻¹
data = [
    ("FJP05A03-H + GFmix_THS-L (antibody, V domains shown) VH: EVQLVESGGDLVKPGGSLRLSCVASGLPFRDYAMAWVRQAPGKGLQWLSLISGSGGKTYYADAVKGRFTISRDNAKNTLYLQMNSLRAEDTAVYYCAVDRLTKTIRPQYYGLWVWGQGTLVTVSS VL: DIVMTQTPLSLSVSPGETASISCRSSQSLTYSIGYNYLDWYMQKPGQSPQGLIYLGSKRASGVSDRFSGSGSGADFTLKISRVEADDAGVYYCMQGLHSPLGFGQGTKLEIKR", 492000),
    ("FJP05A03-H + GFmix3_KTHS-L (antibody, V domains shown) VH: EVQLVESGGDLVKPGGSLRLSCVASGLPFRDYAMAWVRQAPGKGLQWLSLISGSGGKTYYADAVKGRFTISRDNAKNTLYLQMNSLRAEDTAVYYCAVDRLTKTIRPQYYGLWVWGQGTLVTVSS VL: DIVMTQTPLSLSVSPGETASISCRSSKSLTYSIGYNYLDWYMQKPGQSPQGLIYLGSKRASGVSDRFSGSGSGADFTLKISRVEADDAGVYYCMQGLHSPLSFGQGTKLEIKR", 466000),
    ("GFmix_PTH-H + GFmix3_KTHS-L (antibody, V domains shown) VH: EVQLVESGGDLVKPGGSLRLSCVASGFPFRDYAMTWVRQAPGKGLQWLSLISGSGGKTYYADAVKGRFTISRDNAKNTLYLQMNSLRAEDTAVYYCAVDRLTKTIRPQYYGLWHWGQGTLVTVSS VL: DIVMTQTPLSLSVSPGETASISCRSSKSLTYSIGYNYLDWYMQKPGQSPQGLIYLGSKRASGVSDRFSGSGSGADFTLKISRVEADDAGVYYCMQGLHSPLSFGQGTKLEIKR", 447000),
]
